Test system: KM12 colon
Assay: NCI tumour cell line growth inhibition, 48 h
PROPERTY: GI50

In: Please give the documented GI50 of Cc1ccc(N(/C=C/C(=O)C(F)(F)F)CC(=O)c2ccc(Cl)c(Cl)c2)cc1
Out: 3.53 µM

In: Please give the documented GI50 of CC(C)c1ccc(/C=N/N=C(N)N)cc1
Out: 3.3 µM

In: Please give the documented GI50 of COc1ccc2c(c1)C(=O)c1c-2n(CCCN=[N+]=[N-])c(=O)c2cc(N)ccc12
Out: 53.6 µM

Next:
In: Please give the documented GI50 of c1ccc2c(-c3cnn4cc(-c5ccc(N6CCNCC6)cc5)cnc34)ccnc2c1
Out: 1.15 µM

In: Please give the documented GI50 of CCOc1ccc(NC(=O)c2cc3ccccc3cc2O)cc1
Out: > 100 µM

In: Please give the documented GI50 of OCC#CCCCCOCC#Cc1ccccc1C#CCOCCCCC#CCO
Out: 19.6 µM

---

Tested on: EKVX NSCLC
Experiment: NCI tumour cell line growth inhibition, 48 h
PROPERTY: GI50

Record excerpt, results attached:
In: Please give the documented GI50 of O=C([CH-]C(=O)c1ccccc1)c1ccccc1.[CH3-].[CH3-].[CH3-].[Sn+4]
Out: 33.1 µM

In: Please give the documented GI50 of COc1ccc(Nc2ncc(-c3ccccc3)o2)cc1OC
Out: > 25 µM

In: Please give the documented GI50 of CC(C)c1ccc(/C=N/N=C(N)N)cc1
Out: 5.33 µM

In: Please give the documented GI50 of CCOC(=O)Nc1ccc(C(=O)/C=C/c2ccccc2)cc1
Out: 37.5 µM

In: Please give the documented GI50 of Cc1ccc(N(/C=C/C(=O)C(F)(F)F)CC(=O)c2ccc(Cl)c(Cl)c2)cc1
Out: 3.54 µM

Next:
In: Please give the documented GI50 of CCOc1ccc2c(c1)C(=O)c1c-2n(CCCN)c(=O)c2cc([N+](=O)[O-])ccc12
Out: 1.19 µM

In: Please give the documented GI50 of CCCC(CCC)Oc1ccc(CCCC2=C(O)c3ccccc3C(=O)C2=O)cc1
Out: 5.61 µM

In: Please give the documented GI50 of CCOc1ccc(NC(=O)c2cc3ccccc3cc2O)cc1
Out: > 100 µM

---

Test system: OVCAR-5 ovarian
Assay: NCI tumour cell line growth inhibition, 48 h
Catalogue of TGI readings, one per entry.

Record excerpt, results attached:
In: Please give the documented TGI of NCCn1cnc2nc(NC(=O)c3ccccc3)[nH]c(=O)c21
Out: > 100 µM

In: Please give the documented TGI of O=C(Nc1ccccc1[N+](=O)[O-])C(=O)C(C(=O)c1ccccc1-c1ccccc1)C1OC(=O)c2ccccc21 (configuration not stated)
Out: 36.8 µM

In: Please give the documented TGI of CC(C)(C)Cc1cc(O)ccc1O
Out: > 100 µM

In: Please give the documented TGI of CC1(C)Cc2nnsc2C2=C1C(=O)CCS2
Out: > 100 µM

In: Please give the documented TGI of C[n+]1cc2cc3c(cc2c2ccccc21)OCO3
Out: > 100 µM

In: Please give the documented TGI of CC(=O)OC1CC2C(C)(C)OC(=O)CC(OC(C)=O)[C@]2(C)C2CCC3(C)C(=CCC3c3ccoc3)[C@]12C (some centres not stated)
Out: > 100 µM

Next:
In: Please give the documented TGI of NC(=NCCO)c1ccc(N2CCCN(c3ccc(C(N)=NCCO)cc3)CC2)cc1
Out: > 100 µM

In: Please give the documented TGI of COc1ccc(Nc2ncc(-c3ccccc3)o2)cc1OC
Out: > 25 µM

In: Please give the documented TGI of CC(=O)N1N=C(c2ccc(Nc3nc(Nc4ccc(F)cc4)nc(Nc4ccc(Cl)cc4)n3)cc2)CC1c1ccc(N(C)C)cc1 (configuration not stated)
Out: 43.6 µM

In: Please give the documented TGI of Cc1ccc(S(=O)(=O)N[C@@H](Cc2ccccc2)C(=O)CCl)cc1
Out: 65.9 µM

In: Please give the documented TGI of CC(=O)OCC1OC(n2c(=S)n(-c3ccccc3)c(=O)c3cc(Br)ccc32)C(OC(C)=O)C(OC(C)=O)C1OC(C)=O (configuration not stated)
Out: > 100 µM
